system: KRAS-mutant PDC multicell tumor spheroid viability; experiment: Anticancer human tumor 521955-158-R2-J5-PDC patient-derived pancreatic carcinoma cell line growth inhibition [KRAS2]; settings: second compound 3.16 µM; first compound 0.1 µM; stronger effect = lower value
parameterMeasured: viability, T/C (%)
Give bare numbers, in %.

See these solved cases before continuing.
compound | viability, T/C [%]
COc1cc(Nc2ncc3c(n2)-c2ccc(Cl)cc2C(c2c(F)cccc2OC)=NC3)ccc1C(=O)O + CC1OCC2(CCN(c3cnc(Sc4ccnc(N)c4Cl)c(N)n3)CC2)C1N | 31.1
CC1(C)CCC(CN2CCN(c3ccc(C(=O)NS(=O)(=O)c4ccc(NCC5CCOCC5)c([N+](=O)[O-])c4)c(Oc4cnc5[nH]ccc5c4)c3)CC2)=C(c2ccc(Cl)cc2)C1 + C=CC(=O)N1CCN(c2nc(=O)n(-c3c(C)ccnc3C(C)C)c3nc(-c4c(O)cccc4F)c(F)cc23)C(C)C1 | 102
CCNC(=O)CC1N=C(c2ccc(Cl)cc2)c2cc(OC)ccc2-n2c(C)nnc21 (stereo not given) + CNCc1ccccc1-c1csc(C(C)Nc2nc(C)nc3cc(OC)c(OC)cc23)c1 | 0.16
CCN1CCN(Cc2ccc(Nc3ncc(F)c(-c4cc(F)c5nc(C)n(C(C)C)c5c4)n3)nc2)CC1 + CNCc1ccccc1-c1csc(C(C)Nc2nc(C)nc3cc(OC)c(OC)cc23)c1 | 0.25
CC(=O)OC12COC1CC(O)C1(C)C(=O)C(O)C3=C(C)C(OC(=O)C(O)C(NC(=O)OC(C)(C)C)c4ccccc4)CC(O)(C(OC(=O)c4ccccc4)C21)C3(C)C (stereo not given) + CNCc1ccccc1-c1csc(C(C)Nc2nc(C)nc3cc(OC)c(OC)cc23)c1 | 0.05
CC1OCC2(CCN(c3cnc(Sc4ccnc(N)c4Cl)c(N)n3)CC2)C1N (stereo not given) + C=CC(=O)N1CCN(c2nc(OCC3CCCN3C)nc3c2CCN(c2cccc4cccc(C)c24)C3)CC1CC#N | 13.1
CC(=O)OC12COC1CC(O)C1(C)C(=O)C(O)C3=C(C)C(OC(=O)C(O)C(NC(=O)OC(C)(C)C)c4ccccc4)CC(O)(C(OC(=O)c4ccccc4)C21)C3(C)C (stereo not given) + COc1cc2nc(C)nc(NC(C)c3cc(N)cc(C(F)(F)F)c3)c2cc1OC1CCOC1 | 12.1
CN(C)C/C=C/C(=O)Nc1cc2c(Nc3ccc(F)c(Cl)c3)ncnc2cc1O[C@H]1CCOC1 + COc1cc2nc(C)nc(NC(C)c3cc(N)cc(C(F)(F)F)c3)c2cc1OC1CCOC1 | 71.8

Go through the items and report each one's viability, T/C.
1. CC(C)n1nc(-c2ccc3oc(N)nc3c2)c2c(N)ncnc21 + C=CC(=O)N1CCN(c2nc(OCC3CCCN3C)nc3c2CCN(c2cccc4cccc(C)c24)C3)CC1CC#N
2. CC(C)n1nc(-c2ccc3oc(N)nc3c2)c2c(N)ncnc21 + C=CC(=O)N1CCN(c2nc(=O)n(-c3c(C)ccnc3C(C)C)c3nc(-c4c(O)cccc4F)c(F)cc23)C(C)C1

**A:**
1. 14.5
2. 23.1

###

Kindly state viability, T/C for each of the entries shown.
tested on: KRAS-mutant PDC multicell tumor spheroid viability; test: Anticancer human tumor 521955-158-R2-J5-PDC cell line growth inhibition [KRAS2]; settings: second compound 10 µM; first compound 0.0316 µM; stronger effect = lower value;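 also: viability read after seven days of drug exposure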
Give bare numbers, in %.

See these solved cases before continuing.
molecule | viability, T/C / %
CC1OCC2(CCN(c3cnc(Sc4ccnc(N)c4Cl)c(N)n3)CC2)C1N (stereo not drawn) + C=CC(=O)N1CCN(c2nc(=O)n(-c3c(C)ccnc3C(C)C)c3nc(-c4c(O)cccc4F)c(F)cc23)C(C)C1 | 66.2
COc1cc2nccc(Oc3ccc(NC(=O)C4(C(=O)Nc5ccc(F)cc5)CC4)cc3)c2cc1OC + CC1OCC2(CCN(c3cnc(Sc4ccnc(N)c4Cl)c(N)n3)CC2)C1N | 44.9

For the next question, use this molecule.
The molecule Cn1nccc1Nc1nccc(-c2cc3c(s2)C(C)(C)N(CCN2CCOCC2)C3=O)n1 + COc1cc2nc(C)nc(NC(C)c3cc(N)cc(C(F)(F)F)c3)c2cc1OC1CCOC1 , when measured on KRAS-mutant PDC multicell tumor spheroid viability, yielded viability, T/C of 76.8

###

Tested on: KRAS-mutant PDC multicell tumor spheroid viability
Test: Anticancer human tumor 521955-158-R2-J5-PDC cell line growth inhibition [KRAS2];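 also: viability read after seven days of drug exposure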
Conditions: second compound 10 µM; first compound 0.0316 µM; stronger effect = lower value
Excerpt: Multicellular complex tumor spheroid response to RAS pathway inhibitors in combination with a targeted agents in patient-derived cell lines with oncogenic KRAS variants from multiple cancer types A high-throughput screen of multi-cell type tumor spheroids was designed to identify active combinations of targeted small molecules and KRAS pathway inhibitors. […] Compounds. […] If the clinical Cmax for an agent had not been determined, the highest concentration tested was 10 microM. […]
parameterMeasured: viability, T/C (%)
Give bare numbers, in %.

See these solved cases before continuing.
compound | parameterMeasured | resultNumber
Cn1ncnc1[C@H]1c2n[nH]c(=O)c3cc(F)cc(c23)N[C@@H]1c1ccc(F)cc1 + CNCc1ccccc1-c1csc(C(C)Nc2nc(C)nc3cc(OC)c(OC)cc23)c1 | viability, T/C | 0.16
CC(=O)OC12COC1CC(O)C1(C)C(=O)C(O)C3=C(C)C(OC(=O)C(O)C(NC(=O)OC(C)(C)C)c4ccccc4)CC(O)(C(OC(=O)c4ccccc4)C21)C3(C)C (stereo not given) + CNCc1ccccc1-c1csc(C(C)Nc2nc(C)nc3cc(OC)c(OC)cc23)c1 | viability, T/C | 0.14
Cn1nccc1Nc1nccc(-c2cc3c(s2)C(C)(C)N(CCN2CCOCC2)C3=O)n1 + CNCc1ccccc1-c1csc(C(C)Nc2nc(C)nc3cc(OC)c(OC)cc23)c1 | viability, T/C | 0.11
CC(C)n1nc(-c2ccc3oc(N)nc3c2)c2c(N)ncnc21 + CNCc1ccccc1-c1csc(C(C)Nc2nc(C)nc3cc(OC)c(OC)cc23)c1 | viability, T/C | 0.15

For the next question, use this compound.
Record CC1(C)CCC(CN2CCN(c3ccc(C(=O)NS(=O)(=O)c4ccc(NCC5CCOCC5)c([N+](=O)[O-])c4)c(Oc4cnc5[nH]ccc5c4)c3)CC2)=C(c2ccc(Cl)cc2)C1 + C=CC(=O)N1CCN(c2nc(=O)n(-c3c(C)ccnc3C(C)C)c3nc(-c4c(O)cccc4F)c(F)cc23)C(C)C1 . Reported viability, T/C: 75.9

###

tested on: KRAS-mutant PDC multicell tumor spheroid viability; assay: Anticancer human tumor 521955-158-R2-J5-PDC cell line growth inhibition [KRAS2]; conditions: second compound 10 µM; first compound 0.001 µM; stronger effect = lower value;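 also: viability read after seven days of drug exposure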
Criterion: viability, T/C strictly under 70%. Met: Fulfilled. Not met: Not fulfilled.

Before answering, review these 3 worked examples.
compound | studySystem | class
CC(=O)Nc1cccc(-n2c(=O)n(C3CC3)c(=O)c3c(Nc4ccc(I)cc4F)n(C)c(=O)c(C)c32)c1 + CNCc1ccccc1-c1csc(C(C)Nc2nc(C)nc3cc(OC)c(OC)cc23)c1 | KRAS-mutant PDC multicell tumor spheroid viability | Fulfilled
Cn1ncnc1[C@H]1c2n[nH]c(=O)c3cc(F)cc(c23)N[C@@H]1c1ccc(F)cc1 + CNCc1ccccc1-c1csc(C(C)Nc2nc(C)nc3cc(OC)c(OC)cc23)c1 | KRAS-mutant PDC multicell tumor spheroid viability | Fulfilled
Cn1ncnc1[C@H]1c2n[nH]c(=O)c3cc(F)cc(c23)N[C@@H]1c1ccc(F)cc1 + C=CC(=O)N1CCN(c2nc(=O)n(-c3c(C)ccnc3C(C)C)c3nc(-c4c(O)cccc4F)c(F)cc23)C(C)C1 | KRAS-mutant PDC multicell tumor spheroid viability | Fulfilled

Here's the next entry for you.
**Q:** Bench note: check whether CN(C)C/C=C/C(=O)Nc1cc2c(Nc3ccc(F)c(Cl)c3)ncnc2cc1O[C@H]1CCOC1 + CC1OCC2(CCN(c3cnc(Sc4ccnc(N)c4Cl)c(N)n3)CC2)C1N shows viability, T/C below 70%
**A:** Not fulfilled

###

system: KRAS-mutant PDC multicell tumor spheroid viability; experiment: Anticancer human tumor 521955-158-R2-J5-PDC cell line growth inhibition [KRAS2]; conditions: second compound 0.1 µM; first compound 3.16 µM; stronger effect = lower value;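 also: viability read after seven days of drug exposure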
parameterMeasured: viability, T/C (%)
Give bare numbers, in %.

See these solved cases before continuing.
compound | parameterMeasured | unit | resultNumber
O=C(c1cc(Cc2n[nH]c(=O)c3ccccc23)ccc1F)N1CCN(C(=O)C2CC2)CC1 + CNCc1ccccc1-c1csc(C(C)Nc2nc(C)nc3cc(OC)c(OC)cc23)c1 | viability, T/C | % | 72.7
O=C(c1cc(Cc2n[nH]c(=O)c3ccccc23)ccc1F)N1CCN(C(=O)C2CC2)CC1 + C=CC(=O)N1CCN(c2nc(=O)n(-c3c(C)ccnc3C(C)C)c3nc(-c4c(O)cccc4F)c(F)cc23)C(C)C1 | viability, T/C | % | 94.2
CCNC(=O)CC1N=C(c2ccc(Cl)cc2)c2cc(OC)ccc2-n2c(C)nnc21 (centres undefined) + C=CC(=O)N1CCN(c2nc(OCC3CCCN3C)nc3c2CCN(c2cccc4cccc(C)c24)C3)CC1CC#N | viability, T/C | % | 34.3
CC(C)NCC(C(=O)N1CCN(c2ncnc3c2C(C)CC3O)CC1)c1ccc(Cl)cc1 (centres undefined) + C=CC(=O)N1CCN(c2nc(=O)n(-c3c(C)ccnc3C(C)C)c3nc(-c4c(O)cccc4F)c(F)cc23)C(C)C1 | viability, T/C | % | 76.5
CCNC(=O)CC1N=C(c2ccc(Cl)cc2)c2cc(OC)ccc2-n2c(C)nnc21 (centres undefined) + CC1OCC2(CCN(c3cnc(Sc4ccnc(N)c4Cl)c(N)n3)CC2)C1N | viability, T/C | % | 26.5
COC(=O)c1ccc2c(C(=Nc3ccc(N(C)C(=O)CN4CCN(C)CC4)cc3)c3ccccc3)c(O)[nH]c2c1 + C=CC(=O)N1CCN(c2nc(OCC3CCCN3C)nc3c2CCN(c2cccc4cccc(C)c24)C3)CC1CC#N | viability, T/C | % | 8.93

Go through the items and report each one's viability, T/C.
1. CC1(C)CCC(CN2CCN(c3ccc(C(=O)NS(=O)(=O)c4ccc(NCC5CCOCC5)c([N+](=O)[O-])c4)c(Oc4cnc5[nH]ccc5c4)c3)CC2)=C(c2ccc(Cl)cc2)C1 + CC1OCC2(CCN(c3cnc(Sc4ccnc(N)c4Cl)c(N)n3)CC2)C1N
2. Cn1nccc1Nc1nccc(-c2cc3c(s2)C(C)(C)N(CCN2CCOCC2)C3=O)n1 + C=CC(=O)N1CCN(c2nc(OCC3CCCN3C)nc3c2CCN(c2cccc4cccc(C)c24)C3)CC1CC#N
3. CC1OCC2(CCN(c3cnc(Sc4ccnc(N)c4Cl)c(N)n3)CC2)C1N (centres undefined) + CNCc1ccccc1-c1csc(C(C)Nc2nc(C)nc3cc(OC)c(OC)cc23)c1

**A:**
89.9
23.8
67
